These data points were gathered from ChEMBL document CHEMBL3425505.

Tested on: A2780
Assay: Cytotoxicity against human A2780 cells
Type: functional, cell-based
// reported EC50 for each item listed

>>> endpoint_value("C/C(=C\\c1csc(C)n1)[C@@H]1C[C@@H]2O[C@@H]2CCC[C@@H]2CCC[C@@H](C(=O)C(C)(C)[C@@H](O)CC(=O)O1)[C@H]2O")
"8.5 µM"

Field: next molecule
Asked: I'd like to know its EC50. The molecule in question is C/C(=C\c1csc(C)n1)[C@@H]1C[C@@H]2O[C@]2(C)CCC[C@@H]2CCC[C@@H](C(=O)C(C)(C)[C@@H](O)CC(=O)O1)[C@H]2O
Given back: 8.5 µM
